System: MDA-MB-468 breast
Experiment: NCI-60 one-dose screen, 48 h (100 = growth as untreated, 0 = no growth, -100 = all killed)
Conditions: 10 µM unless noted
This is part of a sample that, as a whole, favours compounds with a hit. Of some 83,000 tested, about 20% had one in any assay.
Measured growth of individual entries
All answers are understood in %, so give the number only.

Solved cases below.
[
  {
    "compound": "COCc1cnccc1NC1CCCCCC1",
    "unitAbbreviation": "%",
    "growth": 102
  },
  {
    "compound": "CCCCCCCCc1ccc(CCC(N)(CO)CO)cc1",
    "unitAbbreviation": "%",
    "growth": -93.1
  },
  {
    "compound": "CCc1nc2cc(/C=C/C(=O)NO)c(F)cc2c(=O)n1CCc1ccccc1",
    "unitAbbreviation": "%",
    "growth": -32.9
  }
]

For this compound ( CC/C(=C(\CC)c1ccc(OCCN(CC)CC)cc1)c1ccc(OCCN(CC)CC)cc1 ), measured growth is 0.372

For this compound ( COc1cc(C2CC(c3cccc(Nc4ccncc4)c3)=NN2C(C)=O)cc(OC)c1OC (stereo unspecified) ), measured growth is 86.6

For this compound ( O=C1Nc2ccccc2/C1=C\c1nc(C2CCN(S(=O)(=O)c3ccc(F)cc3)CC2)n2ccccc12 ), measured growth is 70.6

* * *

System: MDA-MB-468 breast
Assay: NCI-60 one-dose screen, 48 h
Conditions: 10 µM unless noted
This is part of a sample that, as a whole, favours compounds with a hit. Of some 83,000 tested, about 20% had one in any assay. Activity calls are given as the source filed them. Rule for the calls: active = growth percent below 10; inactive = the rest.
API: response.call in YES for active, NO for inactive

Examples with answers:
[
  {
    "compound": "COc1cc(C2C3=C(COC3=O)Nc3cc4c(cc32)OCO4)cc2c1OCO2 (stereo not given)",
    "group": "YES"
  },
  {
    "compound": "COc1ccc(NC(=O)c2sc3nc(C)c(C(O)c4ccccc4)cc3c2N)cc1 (stereo not given)",
    "group": "NO"
  },
  {
    "compound": "O=C1/C(=C\\c2ccc(Cl)cc2)CN(C(=O)c2ccccc2)C/C1=C\\c1ccc(Cl)cc1",
    "group": "YES"
  }
]

Next up:
// param item: CC(C)(C)OC(=O)N1C/C(=C\c2ccoc2)C(=O)/C(=C/c2ccoc2)C1 ; yields the recorded call
NO

* * *

System: MDA-MB-468 breast
Assay: NCI-60 one-dose screen, 48 h (100 = growth as untreated, 0 = no growth, -100 = all killed)
Conditions: 10 µM unless noted
Method: Growth inhibition of the MDA-MB-468 human Breast tumor cell line is measured as a screen for anti-cancer activity. Cells are grown in 96 well plates and exposed to the test compound for 48 hours. Compounds are tested at a single concentration, which is 10^-5 M for most compounds. The reported endpoint is percent growth (GI% or GIPRCNT), where numbers from 0 - 100% represent growth inhibition, and numbers from -100% - 0 represent cell death. […]
About 83,000 compounds went through this panel and 20% of them were active in at least one assay; those are over-represented in the sample as a whole.
Threshold-based label: growth under 30% gives 1, growth not under 30% gives -1.

Examples with answers:
[
  {
    "molecule": "O=C(Nc1ccc(F)cc1)Nc1ccccc1CNc1nc(Nc2ccc(OCCN3CCCC3)cc2)ncc1Cl",
    "group": 1
  },
  {
    "molecule": "CC(C)(C)n1cc(-c2ccnc(NCCNS(=O)(=O)c3ccc(Cl)cc3)c2)c(-c2cccc(O)c2)n1",
    "group": -1
  },
  {
    "molecule": "C=C1C(=O)O[C@H]2[C@H]1CC/C(COC(=O)NCc1ccc(Cn3c(=O)sn(CCCCl)c3=O)cc1)=C\\CC[C@@]1(C)O[C@@H]21",
    "group": 1
  }
]

Determine whether this molecule shows growth lower than 30% (ties excluded): COc1ccc(NC(=O)Nc2ccc(OCCCCCC(=O)NO)cc2)cc1
-1

Determine whether this molecule shows growth lower than 30% (ties excluded): COc1ccc(C2[C@@H](c3ccccc3)C(=O)N2c2cc(OC)c(OC)c(OC)c2)cc1F (some centres undefined)
1

Determine whether this molecule shows growth lower than 30% (ties excluded): CCNCc1c(-c2cccc(OC(F)(F)F)c2)[nH]c2ccc(N3CCCC3)cc2c1=O
-1

Attribution: PubChem BioAssay (NCI)
